Data provenance: ChEMBL document CHEMBL4765381

- target-or-system: UniProt:Q9Y5X5
- assay-summary: Agonist activity at NPFFR2 (unknown origin) expressed in mouse NIH3T3 cells by receptor selection and amplification technology assay
- Format: cell-based
value-type: EC50

Exam item: Sample N=C(N)N/N=C/c1ccc(Br)c(Br)c1 — what was its EC50?
Marked response: 794 nM

====

Below, each entry is listed alongside its reported pKi.
- target-or-system: Neuropeptide FF receptor 2 (Homo sapiens, UniProt Q9Y5X5)
- Sequence (Q9Y5X5 whole entry): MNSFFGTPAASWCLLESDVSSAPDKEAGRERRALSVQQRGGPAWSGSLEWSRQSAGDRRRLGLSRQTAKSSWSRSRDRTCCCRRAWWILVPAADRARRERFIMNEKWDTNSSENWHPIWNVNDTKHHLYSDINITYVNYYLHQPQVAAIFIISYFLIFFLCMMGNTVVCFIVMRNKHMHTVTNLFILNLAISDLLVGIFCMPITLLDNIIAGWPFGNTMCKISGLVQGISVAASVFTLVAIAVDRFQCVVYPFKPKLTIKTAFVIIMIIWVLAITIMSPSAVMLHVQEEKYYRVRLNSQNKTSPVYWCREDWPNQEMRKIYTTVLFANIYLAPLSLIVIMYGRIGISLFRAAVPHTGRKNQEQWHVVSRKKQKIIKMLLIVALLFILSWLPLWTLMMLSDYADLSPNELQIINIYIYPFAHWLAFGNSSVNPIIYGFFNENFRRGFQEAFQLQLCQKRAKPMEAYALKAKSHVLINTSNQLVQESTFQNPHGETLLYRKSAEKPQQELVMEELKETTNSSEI
- assay-summary: Displacement of [125I]Tyr-NPFF from human NPFFR2 expressed in green monkey Cos-1 cells
- Assay type: cell-based
Interpret pKi as the negative base-10 log of the concentration measured in mol/L.

NC(=O)[C@H](Cc1ccccc1)NC(=O)[C@H](CCCN=C(N)N)NC(=O)C12CC3CC(CC(C3)C1)C2
7.12

Exam item: For NC(N)=NCCC[C@H](NC(=O)C(c1ccccc1)c1ccccc1)C(=O)NCc1ccc(O)cc1 , what is its reported pKi?
Marked response: 6.34
